The listing below reports pIC50 for molecules tested on Cytochrome P450 3A4 (Homo sapiens).
Sequence (P08684 whole entry): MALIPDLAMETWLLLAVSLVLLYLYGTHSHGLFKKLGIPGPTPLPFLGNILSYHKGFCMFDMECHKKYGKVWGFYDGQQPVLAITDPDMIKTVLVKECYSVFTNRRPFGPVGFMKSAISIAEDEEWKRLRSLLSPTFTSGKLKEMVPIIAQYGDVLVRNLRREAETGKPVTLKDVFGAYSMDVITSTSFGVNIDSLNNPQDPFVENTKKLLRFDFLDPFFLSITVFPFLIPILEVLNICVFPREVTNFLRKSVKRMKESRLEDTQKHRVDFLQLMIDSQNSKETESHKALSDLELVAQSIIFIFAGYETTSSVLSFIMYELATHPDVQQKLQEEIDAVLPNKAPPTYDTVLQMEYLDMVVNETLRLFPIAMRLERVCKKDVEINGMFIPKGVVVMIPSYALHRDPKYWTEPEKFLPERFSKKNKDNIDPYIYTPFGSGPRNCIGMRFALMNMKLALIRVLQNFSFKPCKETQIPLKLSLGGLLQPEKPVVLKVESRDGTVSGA
pIC50: −log10 of the molar value.

molecule	study target	measured
CC1=C(C(=O)OC(C)C)C(c2ccco2)n2c(nc3cc(F)ccc32)N1 (racemic)	Cytochrome P450 3A4 (Homo sapiens)	< 5.00

Attention now shifts to the item below.
input: Endpoint output: pIC50 of CC1=C(C(=O)OC(C)C)C(c2ccco2)n2c(nc3cc(F)c(F)cc32)N1 (racemic) . Value?
output: < 5.00

---

study target: Adenosine receptor A2a (Homo sapiens) (UniProt P29274)
Sequence (P29274 whole entry): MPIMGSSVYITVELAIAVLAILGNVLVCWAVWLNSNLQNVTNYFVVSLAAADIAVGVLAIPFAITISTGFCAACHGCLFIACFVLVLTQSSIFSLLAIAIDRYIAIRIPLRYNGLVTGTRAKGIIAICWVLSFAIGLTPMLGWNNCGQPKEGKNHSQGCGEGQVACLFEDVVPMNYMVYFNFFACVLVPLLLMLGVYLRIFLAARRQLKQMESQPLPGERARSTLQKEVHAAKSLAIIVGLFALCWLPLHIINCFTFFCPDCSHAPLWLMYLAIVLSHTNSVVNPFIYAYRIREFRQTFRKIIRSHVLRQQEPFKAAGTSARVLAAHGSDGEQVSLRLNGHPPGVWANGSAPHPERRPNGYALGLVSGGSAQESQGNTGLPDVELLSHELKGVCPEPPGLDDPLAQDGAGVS
assay: Displacement of [3H]DPCPX from human A2AAR expressed in human HeLa cell membrane at 1 uM incubated for 30 mins by competitive binding assay relative to control
Format: cell membranes
assay endpoint: Activity (%)

compound	assay endpoint	measured
CC1=C(C(=O)OC(C)C)C(c2ccoc2)n2c(nc3ccccc32)N1 (centres undefined)	Activity	23
CC1=C(C(=O)OC(C)C)[C@@H](c2ccco2)n2c(nc3cc(Br)ccc32)N1	Activity	14

[a] CCOC(=O)C1=C(C)Nc2nc3cc(Br)ccc3n2[C@@H]1c1ccoc1
[b] CC1=C(C(=O)OC(C)C)C(c2cocn2)n2c(nc3ccccc32)N1 (centres undefined)
input: Select one: a or b . Criterion: greater recorded Activity. Returns: label corresponding to the selected item.
output: b
(b: 19%, a: 12%)

---

assay: Solubility of compound in 1:99 DMSO/PBS incubated for 4 hrs
Type: physicochemical
assay endpoint: solubility kinetic at 4 h (µM)

compound	solubility kinetic at 4 h [µM]
CC1=C(C(=O)OC(C)C)C(c2ccoc2)n2c(nc3ccccc32)N1 (centres undefined)	26.1

[a] CC1=C(C(=O)OC(C)C)C(c2cocn2)n2c(nc3ccccc32)N1 (centres undefined)
[b] CCCn1c(=O)[nH]c2[nH]c(-c3ccc(S(=O)(=O)C4CCC(c5ccc(Cl)cc5)CC4)cc3)nc2c1=O (centres undefined)
[c] CC1=C(C(=O)OC(C)C)C(c2ccco2)n2c(nc3ccccc32)N1 (centres undefined)
input: // smallest solubility kinetic at 4 h at index 0, largest at the end Record the ranking as a list of labels in the requested order.
output: b, c, a
